test: Metabolic stability in dog microsomes assessed as compound metabolized after 30 mins; assay type: ADME, Canis lupus familiaris, Microsome; conditions: read-out: Drug metabolism
readout-type: metabolised at 0.5 h (%)

a. CC#C[C@@H](CC(=O)O)c1ccc(OCc2ccc(N3CCC4(CCc5ccccc54)CC3)s2)cc1
b. CC#C[C@@H](CC(=O)O)c1ccc(OCc2ccc3nc(-c4c(C)cccc4C)nn3c2)cc1
Problem: Select one: a or b . Criterion: greater recorded metabolised at 0.5 h. Selection: enter the item's label.
Result: a

P. CC#C[C@@H](CC(=O)O)c1ccc(OCc2ccc(CN3CCC4(C=Cc5ccccc54)CC3)cc2)cc1
Q. CC#C[C@@H](CC(=O)O)c1ccc(OCc2ccc(CN3CCCc4cccc(OC)c43)s2)cc1
Problem: Select one: P or Q . Criterion: greater recorded metabolised at 0.5 h. Selection: enter the item's label.
Result: P

----------
assay: Solubility of the compound in pH 8.1 buffer; assay type: physicochemical
readout-type: solubility (µg/mL)
Report only the number, with the unit µg/mL understood.

Problem: Give the measured solubility of CC#C[C@@H](CC(=O)O)c1ccc(OCc2ccc3nc(-c4c(C)cccc4C)nn3c2)cc1 .
Result: 173

----------
test: Metabolic stability in human microsomes assessed as compound metabolized after 30 mins; format: ADME, Microsome; conditions: read-out: Drug metabolism
readout-type: metabolised at 0.5 h (%)

a. CC#C[C@@H](CC(=O)O)c1ccc(OCc2ccc3nc(-c4c(C)cccc4C)nn3c2)cc1
b. CC#C[C@@H](CC(=O)O)c1ccc(OCc2ccc(N3CCC4(CCc5ccccc54)CC3)s2)cc1
Problem: Please compare: a and b . Report which one has the smaller metabolised at 0.5 h value. Selection: enter the item's label.
Result: a
(a: 5%, b: 44%)

----------
system: 3T3-L1; experiment: Induction of adipogenesis in mouse 3T3L1 cells; format: functional, cell-based
Active and inactive are the calls of the source. The rule behind the calls is not given here.
readout-type: Activity

Take a look at these entries with their results.
{"input-smiles": "CC#C[C@@H](CC(=O)O)c1ccc(OCc2ccc3nc(-c4ccc(OCCC(C)(C)O)cc4)nn3c2)cc1", "result-value": "inactive"}
{"input-smiles": "CC#C[C@@H](CC(=O)O)c1ccc(OCc2ccc3nc(-c4c(C)cccc4C)nn3c2)cc1", "result-value": "inactive"}
{"input-smiles": "CC#C[C@@H](CC(=O)O)c1ccc(OCc2ccc3nc(-c4ccc(OCCOC)cc4)nn3c2)cc1", "result-value": "inactive"}
{"input-smiles": "CC#C[C@@H](CC(=O)O)c1ccc(OCc2ccc3nc(-c4ccc(C(C)C)cc4)nn3c2)cc1", "result-value": "inactive"}
{"input-smiles": "CC#C[C@@H](CC(=O)O)c1ccc(OCc2ccc3nc(-c4ccc(C#N)cc4)nn3c2)cc1", "result-value": "inactive"}
{"input-smiles": "CC#C[C@@H](CC(=O)O)c1ccc(OCc2ccc3nc(-c4ccc(OC(F)F)cc4)nn3c2)cc1", "result-value": "inactive"}

Below: the item to evaluate.
Problem: Give the measured Activity of CC#C[C@@H](CC(=O)O)c1ccc(OCc2ccc3nc(-c4c(C)cc(OCCCS(C)(=O)=O)cc4C)nn3c2)cc1 .
Result: inactive

----------
assay: Cmax in Sprague-Dawley rat at 100 mg/kg, po; type: ADME, organism-based; parameters: dose 100 mg/kg, route oral; settings: in vivo
readout-type: Cmax (µg/mL)
Report only the number, with the unit µg/mL understood.

Problem: Give the measured Cmax of CC#C[C@@H](CC(=O)O)c1ccc(OCc2ccc3nc(-c4c(C)cccc4C)nn3c2)cc1 .
Result: 208

----------
test: Tmax in Beagle dog at 30 mg/kg, po; format: ADME, organism-based, Canis lupus familiaris; conditions: in vivo
readout-type: Tmax (h)
Report only the number, with the unit h understood.

Problem: Give the measured Tmax of CC#C[C@@H](CC(=O)O)c1ccc(OCc2ccc3nc(-c4c(C)cccc4C)nn3c2)cc1 .
Result: 2

----------
test: Lipophilicity, log P of the compound; type: physicochemical; details: octanol/water
readout-type: logP

{"input-smiles": "CC#C[C@@H](CC(=O)O)c1ccc(OCc2ccc3nc(-c4c(C)cccc4C)nn3c2)cc1", "readout-type": "logP", "result-value": 4.8}
{"input-smiles": "CC#C[C@@H](CC(=O)O)c1ccc(OCc2ccc(N3CCC4(CCc5ccccc54)CC3)s2)cc1", "readout-type": "logP", "result-value": 5}

----------
target: UniProt O14842; test: Competitive displacement of [3H]-TAK-875 from full length human recombinant GPR40 expressed in HEK293 cell membranes after 2 hrs by scintillation counting
Sequence (O14842 whole entry): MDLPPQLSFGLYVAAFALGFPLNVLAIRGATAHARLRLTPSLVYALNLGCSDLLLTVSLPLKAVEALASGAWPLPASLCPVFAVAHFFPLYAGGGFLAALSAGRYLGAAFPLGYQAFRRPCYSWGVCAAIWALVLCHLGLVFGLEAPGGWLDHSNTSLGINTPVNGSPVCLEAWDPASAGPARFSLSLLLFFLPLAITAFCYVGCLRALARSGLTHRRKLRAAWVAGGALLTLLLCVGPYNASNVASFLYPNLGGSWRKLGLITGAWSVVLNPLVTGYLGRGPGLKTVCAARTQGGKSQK
readout-type: Ki (nM)

{"input-smiles": "CC#C[C@@H](CC(=O)O)c1ccc(OCc2ccc3nc(-c4ccc(OCCOC)cc4)nn3c2)cc1", "Ki, nM": 102}
{"input-smiles": "CC#C[C@@H](CC(=O)O)c1ccc(OCc2ccc3nc(-c4c(C)cc(OCCCS(C)(=O)=O)cc4C)nn3c2)cc1", "Ki, nM": 63}

P. CC#C[C@@H](CC(=O)O)c1ccc(OCc2ccc3nc(-c4ccc(OCCC(C)(C)O)cc4)nn3c2)cc1
Q. CC#C[C@@H](CC(=O)O)c1ccc(OCc2ccc3nc(-c4ccc(OC(F)F)cc4)nn3c2)cc1
Problem: Please compare: P and Q . Report which one has the smaller Ki value. Selection: enter the item's label.
Result: P

----------
test: Half life in Beagle dog at 1 mg/kg, iv; assay type: ADME, organism-based, Canis lupus familiaris; conditions: in vivo
readout-type: half-life (h)
Report only the number, with the unit h understood.

Problem: Give the measured half-life of CC#C[C@@H](CC(=O)O)c1ccc(OCc2ccc3nc(-c4c(C)cccc4C)nn3c2)cc1 .
Result: 6.53

----------
experiment: Tmax in Sprague-Dawley rat at 1 mg/kg, po; type: ADME, organism-based; details: in vivo
readout-type: Tmax (min)
Report only the number, with the unit min understood.

Problem: Give the measured Tmax of CC#C[C@@H](CC(=O)O)c1ccc(OCc2ccc3nc(-c4c(C)cccc4C)nn3c2)cc1 .
Result: 15

----------
experiment: Volume of distribution at steady state in Sprague-Dawley rat at 1 mg/kg, iv; type: ADME, organism-based; conditions: in vivo, read-out: Vdss
readout-type: Vd (L/kg)
Report only the number, with the unit L/kg understood.

Problem: Give the measured Vd of CC#C[C@@H](CC(=O)O)c1ccc(OCc2ccc3nc(-c4c(C)cccc4C)nn3c2)cc1 .
Result: 0.33

----------
experiment: Clearance in Beagle dog at 1 mg/kg, iv; format: ADME, organism-based, Canis lupus familiaris; details: in vivo
readout-type: clearance (mL/min/kg)
Report only the number, with the unit mL/min/kg understood.

Problem: Give the measured clearance of CC#C[C@@H](CC(=O)O)c1ccc(OCc2ccc3nc(-c4c(C)cccc4C)nn3c2)cc1 .
Result: 0.601

----------
assay: Cmax in Beagle dog at 300 mg/kg, po; assay type: ADME, organism-based, Canis lupus familiaris; design: dose 300 mg/kg, route oral; conditions: in vivo
readout-type: Cmax (µg/mL)
Report only the number, with the unit µg/mL understood.

Problem: Give the measured Cmax of CC#C[C@@H](CC(=O)O)c1ccc(OCc2ccc3nc(-c4c(C)cccc4C)nn3c2)cc1 .
Result: 277

----------
target: UniProt Q8K3T4; experiment: Agonist activity at rat PK-tagged GPR40 expressed in human U2OS cells assessed as EA-tagged beta-arrestin recruitment after 90 mins in presence of 1 % heat inactivated FBS by beta-galactosidase reporter gene assay
Sequence (Q8K3T4 whole entry): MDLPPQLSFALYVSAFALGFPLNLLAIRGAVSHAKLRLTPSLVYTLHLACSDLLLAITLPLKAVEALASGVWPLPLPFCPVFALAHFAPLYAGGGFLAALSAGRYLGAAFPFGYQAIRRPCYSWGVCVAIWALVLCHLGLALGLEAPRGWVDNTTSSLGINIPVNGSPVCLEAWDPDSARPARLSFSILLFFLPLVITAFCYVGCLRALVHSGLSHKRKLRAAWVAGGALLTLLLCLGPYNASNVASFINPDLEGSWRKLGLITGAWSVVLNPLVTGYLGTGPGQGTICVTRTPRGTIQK
pEC50: −log10 of the molar value.
readout-type: pEC50

{"input-smiles": "CC#C[C@@H](CC(=O)O)c1ccc(OCc2ccc3nc(-c4ccc(C(C)C)cc4)nn3c2)cc1", "pEC50": 7.52}
{"input-smiles": "CC#C[C@@H](CC(=O)O)c1ccc(OCc2ccc3nc(-c4c(C)cccc4C)nn3c2)cc1", "pEC50": 7.85}
{"input-smiles": "CC#C[C@@H](CC(=O)O)c1ccc(OCc2ccc3nc(-c4ccc(OC(F)F)cc4)nn3c2)cc1", "pEC50": 7.01}
{"input-smiles": "CC#C[C@@H](CC(=O)O)c1ccc(OCc2ccc3nc(-c4ccc(OCCC(C)(C)O)cc4)nn3c2)cc1", "pEC50": 7.17}

a. CC#C[C@@H](CC(=O)O)c1ccc(OCc2ccc3nc(-c4c(C)cc(OCCCS(C)(=O)=O)cc4C)nn3c2)cc1
b. CC#C[C@@H](CC(=O)O)c1ccc(OCc2ccc3nc(-c4ccc(C#N)cc4)nn3c2)cc1
c. CC#C[C@@H](CC(=O)O)c1ccc(OCc2ccc3nc(-c4ccc(OCCOC)cc4)nn3c2)cc1
Problem: Place the items in sequence of falling pEC50. Note for the reader: the ranking is given by listing the labels in the order requested.
Result: a, b, c

----------
experiment: AUC (0 to 24 hrs) in Beagle dog at 30 mg/kg, po; format: ADME, organism-based, Canis lupus familiaris; design: dose 30 mg/kg, time < 24 hr, route oral; settings: in vivo
readout-type: AUC(0-t) at 24 h (µg·h/mL)
Report only the number, with the unit µg·h/mL understood.

Problem: Give the measured AUC(0-t) at 24 h of CC#C[C@@H](CC(=O)O)c1ccc(OCc2ccc3nc(-c4c(C)cccc4C)nn3c2)cc1 .
Result: 120
